tested on: CAKI-1; experiment: NCI tumour cell line growth inhibition, 48 h
Activity calls are given as the source filed them. Cut-off read from the data, not from the text of the source: active = GI50 up to about 1.1 µM and inactive = higher.
Allowed answers: active, inactive

Study these solved cases before continuing.
C/C=C\C1OC1(C)c1cc(=O)c2c(C)cc3c(c2o1)C(=O)c1c(O)c(C2CC(C)(N(C)C)C(OC(C)=O)C(C)O2)cc(C2CC(N(C)C)C(O)C(C)O2)c1C3=O (stereo not given) = active
COC(=O)c1ccccc1/C=C1\Cc2ccc3ccccc3c2C1C (stereo not given) = inactive

Outcome logged for COc1ccc(/C=C(\NC(=O)c2ccccc2)c2nc3ccccc3[nH]2)cc1OC in this assay: inactive

Recorded test call requested for CCCCNc1nc(SC)nc2[nH]cnc12 inactive

Test call for this compound, please: C/C(=N\Nc1nc2ccccc2n1C)c1cc2ccccc2cn1 active

----------
tested on: MDA-N; assay: NCI tumour cell line growth inhibition, 48 h
Active and inactive are the calls of the source. Rule as the data show it: active = GI50 up to about 1.1 µM and inactive = higher.
compounds and their reported GI50

CCCCNc1nc(SC)nc2[nH]cnc12 = > 100 µM (inactive)
C=C1C[C@H](O)[C@H](Br)C(C)(C)C12CCC(C)(Cl)C(Br)C2 (some centres undefined) = 1.39 µM (inactive)
C[N+](C)(C)CCOP(=O)([O-])OCCNC(=O)c1ccc2ccccc2c1 = > 100 µM (inactive)

# input for lookup
Look up GI50 for this compound: Cc1ccc(C)n1-c1ccccc1C1C=CN(C(=O)OC(C)(C)C)C=C1 46.2 µM (inactive)

----------
test system: CAKI-1; experiment: NCI tumour cell line growth inhibition, 48 h
The source made the active and inactive calls. Cut-off read from the data, not from the text of the source: active = GI50 up to about 1.1 µM and inactive = higher.
Hello, when you answer, please use one of the following outcomes: active, inactive

// known answers, use as guide
CCN(CC)C(=S)SC1CCOP(=O)(N(CCCl)CCCl)N1C (stereo not drawn) = inactive
O=C1Cc2c([nH]c3ccc([N+](=O)[O-])cc23)-c2ccccc2N1 = active

We next turn to a different molecule, shown below.
Write down the call the test reported for this molecule. Item: Cc1cc(NC(=O)NC(=O)c2ccccc2NC(=O)C(C)N)ccc1Oc1ncc(Br)cn1 (stereo not drawn) active

----------
system: SN12C; test: NCI tumour cell line growth inhibition, 48 h
Active and inactive are the calls of the source. Cut-off read from the data, not from the text of the source: active = GI50 up to about 1.1 µM and inactive = higher.
The reply should be one of these categories: t = active, f = inactive

Cc1ccccc1NC(=O)C(=O)CC(=O)C1CCOC1=O (stereo not drawn) = f
Nc1ccccc1SCc1csc(-c2ccc(Cl)cc2)n1 = f
Oc1cc(-c2ccc(F)cc2)nc2ncc(Cl)cc12 = f

Any idea what this test logged for Cc1ccc(C2(N3CCCC3)OC(C)(C)c3cccc4cccc2c34)cc1 (stereo not drawn) ? f

Dear all, I need the recorded test outcome for N#CC(c1nc2ccccc2s1)c1nc(Cl)ncc1Br (stereo not drawn) , thank you. f

Entry Cc1nc2nnnn2c2c1C(=O)Nc1ccccc1N2 : call = ? f

Outcome? Cc1cc(NS(=O)(=O)c2ccc(NC(=O)c3ccc4nc5ccccc5c(Nc5ccc(S(=O)(=O)Nc6cc(C)on6)cc5)c4c3)cc2)no1 f

// outcome(item) with item = O=Cc1cn(CCCCCCCCCCCCn2cc(C=O)c3ccccc32)c2ccccc12 f

Hi, do you know how Cc1ccc(NC(c2ccccc2)c2ccc3cccnc3c2O)cc1 (stereo not drawn) came out in this test? f

----------
tested on: HCC 2998; test: NCI tumour cell line growth inhibition, 48 h
Activity calls are given as the source filed them. Cut-off read from the data, not from the text of the source: active = GI50 up to about 1.1 µM and inactive = higher.
// allowed return values: label 1 for active, label 0 for inactive

Sample answers from the record:
Cc1cc(NC(=O)NC(=O)c2ccccc2NC(=O)C(C)N)ccc1Oc1ncc(Br)cn1 (stereo not given) = label 1
CCN(CC)CCOC(=O)CCN1CC2CCC(CC2)C1 = label 0
CS(=O)(=O)OCC1CCCCCCCCCCC12SCCCS2 (stereo not given) = label 0
CC(=O)OCC1OC(n2c3c(cc(C#N)c2=S)CCCCC3)C(OC(C)=O)C(OC(C)=O)C1OC(C)=O (stereo not given) = label 0
OCC(O)C(O)C(O)c1nn(-c2ccc(F)cc2)c2nc3cc(Cl)c(Cl)cc3nc12 (stereo not given) = label 0
COC(=O)C1=NN2c3ccccc3C(=O)OCCC2(C)C1 (stereo not given) = label 0

I'd appreciate the recorded outcome for COC(=O)[C@@H]1C=C[C@@H](C#N)n2c(=O)n(-c3ccccc3)c(=O)n21 from this test. label 0

// param item: CC12CC(=O)C3C(C(=O)C1)C32C (stereo not given) ; yields the recorded call label 0

How did this test come out for CN(CCO)/N=N/c1[nH]cnc1C(N)=O ? label 0

Which outcome was entered for the compound OCC1OC2c3ccccc3COC2C1OCc1ccccc1 (stereo not given) in this test? label 0
